- Test system: HCV Replicon IB
- test_method_notes: HCV replicon assay in Huh-7 cells, genotype 1b (Rluc luciferase readout)
- Assay type: cell-based, hepatitis C virus
- conditions: Hepatitis C virus, Huh-7, 72 h, HCV1B replicon, Huh-7 cells, 3 days; read-out: EC50_HCV1B_
pEC50: −log10 of the molar value.
Assign class by pEC50: not lower than 8 means Satisfied; lower than 8 means Not satisfied.

Worked examples, 10 molecules total:
{"columns": ["molecule", "cat"],
 "data": [
  ["CSCOC1(C)CC(Nc2nnc(-c3cc(C)c4cc(OCC(F)(F)F)cc(C(C)(C)C)c4n3)o2)C1 (stereo not drawn)", "Not satisfied"],
  ["Cc1cc(-c2nnc(N[C@H]3C[C@@H](O)C3)o2)nc2c(C(C)(C)C)cc(OCC(F)(F)F)cc12", "Satisfied"],
  ["Cc1cc(-c2nnc(NCC3CSCCN3)s2)nc2c(C(F)(F)F)cc(C3CC3)cc12 (stereo not drawn)", "Not satisfied"],
  ["CS(=O)(=O)N1CCNC(CNC(=O)c2cc(N)c3cc(OC(F)F)cc(C(F)(F)F)c3n2)C1 (stereo not drawn)", "Not satisfied"],
  ["CC(C)(O)CCNc1nnc(-c2cc(N)c3cc(C4CC4)cc(C(C)(C)C)c3n2)o1", "Satisfied"],
  ["Cc1cc(C(=O)NC[C@@H]2CS(=O)(=O)CCN2)nc2c(C(C)(C)C)cc(OCC(F)(F)F)cc12", "Satisfied"],
  ["Cc1cc(-c2nnc(N[C@H]3C[C@](O)(CF)C3)o2)nc2c(C(C)(C)C)cc(OCC(F)(F)F)cc12", "Satisfied"],
  ["Cc1cc(-c2nnc(Nc3cccnc3)s2)nc2c(C(C)(C)C)cc(OCC(F)(F)F)cc12", "Not satisfied"],
  ["Cc1cc(-c2nnc(NCC3OCCO3)o2)nc2c(C(C)(C)C)cc(OC(F)F)cc12", "Satisfied"],
  ["Cc1cc(-c2nnc(Nc3ccccn3)o2)nc2c(C(C)(C)C)cc(C3CC3)cc12", "Satisfied"]
]}

Now consider the entry below.
QUERY: // inclusive: pEC50 at least 8? input: Cc1cc(-c2nnc(N[C@H]3C[C@](O)(CF)C3)o2)nc2c(C(C)(C)C)cc(OCCF)cc12
RESULT: Satisfied

src = patent US20120053148A1
